Provenance of the data: ChEMBL document CHEMBL1201862

System: TK-10
PROTOCOL: NCI tumour cell line growth inhibition, 48 h
The source made the active and inactive calls. Rule as the data show it: active = GI50 up to about 1.1 µM and inactive = higher.
Hi! Could you answer with just one of these? yes (1) for active, no (0) for inactive

Example results:
Cn1ccc(=NS(=O)(=O)c2ccccc2)cc1 ... no (0)
CCCCc1ccc(Nc2cc(=O)n(C)c(=O)[nH]2)cc1 ... no (0)
CC1CC[C@@]2(OC1)OC1C[C@H]3[C@@H]4CC=C5CC(OC6OC(CO)C(OC7OC(CO)C(O)C(OC8OCC(O)C(O)C8O)C7OC7OC(CO)C(OC8OC(C)C(OC9OC(C)C(O)C(O)C9O)C(O)C8O)C(O)C7O)C(O)C6O)CCC5(C)[C@H]4CCC3(C)C1[C@@H]2C (stereo partly specified) ... no (0)
Nc1nc(O)c2c(ncn2CCO)n1 ... no (0)
CN(C)C(=N)NC(=S)N(C)C ... no (0)

Shift focus to the following entry.
Data request: Which outcome did this test record for the compound "CC(C)C[C@H](NC(=O)[C@H](Cc1ccc(F)cc1)NC(=O)c1ccccn1)B(O)O" ?
Data returned: yes (1)

###

Exercise: state measured GI50 for each of the molecules provided.
Test system: NCI/ADR-RES
PROTOCOL: NCI tumour cell line growth inhibition, 48 h
Activity calls are given as the source filed them. Rule as the data show it: active = GI50 up to about 1.1 µM and inactive = higher.

For orientation, consider the following solved cases.
CCc1n[nH]c(=O)n1CCO ... > 100 µM (inactive)
O=C1c2ccccc2C2C1C(c1ccccc1)C1(Cc3ccccc3C1=O)C2c1ccccc1 (stereo not given) ... > 100 µM (inactive)

Can you give me GI50 for all of these, one by one?
1. Cn1c(=O)c2c(nc3n(Cc4ccccc4)c(=O)c(NCCBr)cn23)n(C)c1=O
2. O=C1CNC(=O)N1
3. Nc1ccn(C2CCC(CO)O2)c(=O)n1 (stereo not given)
4. S=c1sc2c(s1)SCCCCSCCCCSc1sc(=S)sc1SCCCCSCCCCS2
5. Cc1ccc(-c2c(C#N)c(-c3ccc([N+](=O)[O-])cc3)c(C#N)c(=O)n2NS(=O)(=O)c2ccc(C)cc2)cc1
6. COC(=O)C1=C(C)NC(C)=C(C(=O)OC)C1c1ccc(/[N+]([O-])=C/c2ccccc2)cc1
7. CN1CCN(C(=O)c2cn(Cc3cncn3Cc3ccc4c(c3)OCO4)cc2-c2cccc3ccccc23)CC1
8. O=C1NC(=O)c2ccccc2/C1=C/c1ccc2c(c1)OCO2

Data returned:
21.8 µM (inactive)
> 1120 µM (inactive)
159 µM (inactive)
> 100 µM (inactive)
38.1 µM (inactive)
66.5 µM (inactive)
28.2 µM (inactive)
17.9 µM (inactive)

###

Test system: HOP-92
PROTOCOL: NCI tumour cell line growth inhibition, 48 h
Calls of active or inactive are those of the source. Cut-off read from the data, not from the text of the source: active = GI50 up to about 1.1 µM and inactive = higher.
Hi! Could you answer with just one of these? active, inactive

Example results:
O=C1c2cccc(O)c2C(=O)c2cccc(O)c21 ... inactive
Cn1c(=O)c2c(nc3n(Cc4ccccc4)c(=O)c(NCCBr)cn23)n(C)c1=O ... inactive
O=C1CCCCCCCCCCC1CN(Cc1ccccc1)Cc1ccccc1 (centres undefined) ... inactive
CC[C@]1(O)C[C@H]2CN(CCc3c([nH]c4ccccc34)[C@@](C(=O)OC)(c3cc4c(cc3OC)N(C)[C@H]3[C@@](O)(C(=O)OC)[C@H](OC(C)=O)[C@]5(CC)C=CCN6CC[C@]43[C@@H]65)C2)C1 ... active
CCOC(=O)CN.CCOC(=O)Nc1ccc(S(=O)(=O)OC)cc1.CCOC(=O)Nc1ccc(S(=O)(=O)OC)cc1 ... inactive
CCCCCCNC(=O)c1cnc(Cl)cn1 ... inactive

Data request: Which outcome did this test record for the compound N#CC1=C2SCCN2C(=O)C(C#N)C12CCCCC2 (centres undefined) ?
Data returned: inactive

Data request: Let us now turn to CCCCCCCCCOCC(COP(=O)([O-])OCC[N+](C)(C)C)OC (centres undefined)
Data returned: inactive

Data request: Let us now turn to CN1C(=O)N(C)C(N2CCCC2)c2c1nc1ccccn1c2=O (centres undefined)
Data returned: inactive

###

Tested on: 786-0
PROTOCOL: NCI tumour cell line growth inhibition, 48 h
Activity calls are given as the source filed them. Cut-off read from the data, not from the text of the source: active = GI50 up to about 1.1 µM and inactive = higher.
Exercise: state measured GI50 for each of the compounds provided.

C/C1=C\[C@H](C)C[C@H](C)OC(=O)C[C@H](c2ccc(O)cc2)NC(=O)[C@H](Cc2ccc(O)c(Br)c2)N(C)C(=O)[C@H](C)NC(=O)[C@@H](C)C1 ... > 25 µM (inactive)
COc1ccccc1/C=C1\Sc2scc(-c3ccc(O)c(O)c3)[n+]2C1=O ... 15.2 µM (inactive)
CC(=O)Nc1ccc(S(=O)(=O)c2nnc(NC(C)=O)s2)cc1 ... > 100 µM (inactive)
CCC1(C)C=Cc2c(cc(O)c3c(=O)c4ccccc4n(C)c23)O1 (stereo not drawn) ... > 10 µM (inactive)

Can you give me GI50 for all of these, one by one?
1. CC12CC(OC(=O)[C@]1(C)O)[C@@H]([C@]1(O)CC[C@H]3[C@@H]4C[C@H]5O[C@]56[C@@H](O)C=CC(=O)[C@]6(C)[C@H]4CC[C@@]31C)C2 (stereo partly drawn)
2. N#Cc1c2nc3ccccc3nc2n2ccccc12
3. CC1=C(/C=C/C(C)=C/C=C/C(C)=C/C(=O)O)C(C)(C)CCC1
4. CCCCc1ccc(Nc2nc3c(ncn3C3OC(COC(C)=O)C(OC(C)=O)C3OC(C)=O)c(=O)[nH]2)cc1 (stereo not drawn)

Data returned:
1: 3.04 µM (inactive); 2: > 100 µM (inactive); 3: 49.9 µM (inactive); 4: 17.2 µM (inactive)

###

System: SR
PROTOCOL: NCI tumour cell line growth inhibition, 48 h
Activity calls are given as the source filed them. Rule as the data show it: active = GI50 up to about 1.1 µM and inactive = higher.
Hi! Could you answer with just one of these? active, inactive

Data request: Which outcome did this test record for the compound "O=C(O)CSc1ccc(N=C=S)cc1" ?
Data returned: inactive

Data request: Let us now turn to "Cn1c(O)c(C(=O)NC2CCCCC2)c(=O)n(C)c1=S"
Data returned: inactive

Data request: Let us now turn to "CCC/N=C(/NC(=O)c1ccc(Cl)cc1)SC"
Data returned: inactive

Data request: Let us now turn to "CC(C)N(Cc1ccccc1)S(=O)(=O)c1nc(C(C)(C)C)n[nH]1"
Data returned: inactive

Data request: Let us now turn to "COc1ccc(-c2c3ccccc3c(-c3ccc(OCCCCCBr)cc3)c3ccccc23)cc1"
Data returned: inactive

Data request: Let us now turn to NC(=O)c1ncn(C2C=CC(CP(=O)(O)O)C2)c1N (configuration not stated)
Data returned: inactive

Data request: Let us now turn to "C=C(C)[C@@H]1CC[C@@H](C)[C@](O)([C@@H]2C[C@@H]([C@H](COC(=O)c3ccccc3)OC(=O)c3ccccc3)OC2=O)C1"
Data returned: inactive

Data request: Let us now turn to "N#CCCN(CCC#N)c1ccc(C(=N/c2ccc(F)cc2)/N=N/c2ccc(Cl)cc2)cc1"
Data returned: inactive

Data request: Let us now turn to N#CC1=C2SCCN2C(=O)C(C#N)C12CCCCC2 (configuration not stated)
Data returned: inactive

Data request: Let us now turn to "O=C1C=CC(=O)N1n1c(-c2ccccc2)n[nH]c1=O"
Data returned: inactive

Data request: Let us now turn to O=C1CC(c2ccccc2Cl)C2(C(=O)NC(=O)NC2=O)C(c2ccccc2Cl)C1 (configuration not stated)
Data returned: inactive

Data request: Let us now turn to O=C1C(Cl)C(c2cc(Br)ccc2O)N1n1cnc2ccccc2c1=O (configuration not stated)
Data returned: inactive

Data request: Let us now turn to O=C1C2CC=CCC2C(=O)N1n1c(Cc2ccc(Cl)cc2)n[nH]c1=O (configuration not stated)
Data returned: inactive

Data request: Let us now turn to "Cc1ccc(-c2n[nH]c(=O)n2NC(=O)c2ccccc2C(=O)O)cc1"
Data returned: inactive

Data request: Let us now turn to "O=C1CCC(c2ccc(Cl)cc2)=NN1c1nsc2ccccc12"
Data returned: inactive

Data request: Let us now turn to "N#Cc1ccc(Nc2nc3[nH]cnc3c(=O)[nH]2)cc1"
Data returned: inactive

Data request: Let us now turn to "NC1=NS(=O)(=O)Nc2nc(-c3ccccc3)c(-c3ccccc3)nc21"
Data returned: inactive

Data request: Let us now turn to CN(C)CC1CCC/C(=C\c2ccc(OC(=O)/C=C/c3ccc(Cl)cc3)cc2)C1=O (configuration not stated)
Data returned: active

Data request: Let us now turn to N#CC1(C2SCC[S+]2[O-])C2=C(C(=O)c3ccccc3C2=O)N2CCCC21 (configuration not stated)
Data returned: active

Data request: Let us now turn to O=C1CCCCCCCCCCC1CN(Cc1ccccc1)Cc1ccccc1 (configuration not stated)
Data returned: inactive

Data request: Let us now turn to "COc1cc(CNc2cnc3cc(N)ccc3n2)cc(OC)c1OC"
Data returned: inactive

Data request: Let us now turn to "COC(=O)C(=O)Cc1nc2ccccc2s1"
Data returned: inactive
